TEST READOUT: melting point (°C)
The reply should contain only the number, in °C.

Recorded melting point, per entry:
INSERT INTO assay_data (compound, reading) VALUES
  ('CCC[S+]([O-])c1nc2c(C)cccc2cc1CN(Cc1cc(C(F)(F)F)cc(C(F)(F)F)c1)C(=O)OCC (stereo not shown) [Example 137]', 86),
  ('CCOC(=O)c1c(CN(Cc2cc(C(F)(F)F)cc(C(F)(F)F)c2)c2nnn(C)n2)c2ccccc2n1C [Example 125]', 83);

Problem: # query: melting point of entry CCN(CC1CCCC1)c1nc2c(cc1CN(Cc1cc(C(F)(F)F)cc(C(F)(F)F)c1)c1nc(C(F)(F)F)co1)c(C)nn2C [Example 22]
Result: 139

Problem: # query: melting point of entry CCN(CC1CCCC1)c1nc2ccccc2cc1CN(Cc1cc(C(F)(F)F)cc(C(F)(F)F)c1)C(N)=S [Example 62]
Result: 98

Problem: # query: melting point of entry Cc1cccc2cc(CN(Cc3cc(C(F)(F)F)cc(C(F)(F)F)c3)c3nnn(C)n3)c(N(CC3CC3)CC3CC3)nc12 [Example 57]
Result: 63
